Molecular target: T1, 1-1-5 (Homo sapiens, UniProt O00501, A34S/A72N/D37G/E76T/F35Y/G26A/H38D/H61Q/K48E/L36A/M29Q/M62I/Q31R/T33Y/T45A/T46M/T75S/V32I/V56S/V70L/W47Y/Y67F)
T1 construct: expressed in transfected cells; host or cells: retrovirus-infected cells (pCX4pur)
T1 sequence (O00501 1-218 G26A/M29Q/Q31R/V32I/T33Y/A34S/F35Y/L36A/D37G/H38D/T45A/T46M/W47Y/K48E/V56S/H61Q/M62I/Y67F/V70L/A72N/T75S/E76T): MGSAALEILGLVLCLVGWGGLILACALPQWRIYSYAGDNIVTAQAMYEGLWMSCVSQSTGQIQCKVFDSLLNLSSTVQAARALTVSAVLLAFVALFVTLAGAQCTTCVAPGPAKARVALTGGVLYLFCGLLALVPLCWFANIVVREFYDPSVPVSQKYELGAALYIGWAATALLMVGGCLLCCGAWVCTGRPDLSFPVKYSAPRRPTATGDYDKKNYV
Assay: Epitope analysis FACS, chimeric protein 1-1-5
Format: binding
Conditions: antibody concentration 5 μg/mL; first extracellular loop substituted with hCLDN-1
METRIC NAME: recognition of 1-1-5

Answered examples (5):
* R2: rat anti-CLDN-5 monoclonal antibody, IgG2a/K; VH SEQ ID NO: 11, VL SEQ ID NO: 12; example of antibody F (antibody, V domains shown, R2 VH; R2 VL) VH: QVQLKESGPGLVQPSQTLSLTCTVSGLSLIRNSVSWIRQPPGKGLEWMGVIWSNGGTEYNSTVKSRLSISRDTSKNQVFLKMNSLQTEDSAMFFCARTPDGYYPYFDYWGQGVMVTVSS VL: DIVLTQSPATLSVTPGESVSLSCRASQGISTSIHWYQQKSNESPRLLIRYASQSISRIPSRFSGSGSGTDFTLTINGVESEDLSVYYCQQSYNLPLTFGSGTKLEI | incapable of recognizing
* M23: mouse anti-CLDN-5 monoclonal antibody, IgG2b/K; VH SEQ ID NO: 5, VL SEQ ID NO: 6; example of antibody C (antibody, V domains shown, M23 VH; M23 VL) VH: EVQLQQSGPVLVKPGPSVMISCKASGFTFTDYYMHWVKQSHGKSLEWIGLVYPYNGGTDYNQKFKGKATLTVDTSSSTAYMELNSLTSEDSAVYYCARCLYDGLYFYAMDYWGQGTSVTVSS VL: DIVMSQSPSSLAVSAGEKVTMTCKSSQSLLNSRARKNYLAWYQQKAGQSPKLLMYWASTRESGVPDRFTASGSGTDFTLTISSVQAEDLAVFYCKQSYNLPWTFGGGTKLEIKR | capable of recognizing
* M11: mouse anti-CLDN-5 monoclonal antibody, IgG2b/K; VH SEQ ID NO: 3, VL SEQ ID NO: 4; example of antibody B (antibody, V domains shown, M11 VH; M11 VL) VH: QVQLKQSGPGLVQPSQSLSITCTVSGFSLIRYGVHWVRQSPGKGLEWLGVKWSGGSTDYNGAFKSRLSISKDNSKSQVFFKMNSLQADDTAIYYCARGLDGYYVPDVWGTGTSVTVS VL: DIVMTQSHKFMSTSVGDRVSITCKASQDVSTNVAWYQQKPGQSPTLLIYWASTRHTGVPDRFTGSGSGTDYTLTISSVQAEDLALYYCQQHYSTPLTFGAGTKLELRR | incapable of recognizing
* R3: rat anti-CLDN-5 monoclonal antibody, IgG2a/K; VH SEQ ID NO: 13, VL SEQ ID NO: 14; example of antibody G (antibody, V domains shown, R3 VH; R3 VL) VH: EVQLVESGGGLVQPGRSLKLSCAASGFTFSDYYMAWVRQAPKKGLEWVASISYEGRNTYYGDSVKGRFTISRDNAKSTLYLQMKSLRSEDTATYYCTRHPRRYFDYWGQGVMVTVSS VL: DIVMTQSPSSLAVSAGETVTMNCRSSQSLFSSGDQKKFLAWYQQKPGQSPKLLISLASTRESGVPDRFIGSGSGTDFTLTINNMQAEDLAIYYCQQHYDIPYTFGAGTKLEL | capable of recognizing
* R14: rat anti-CLDN-5 monoclonal antibody, IgG2a/K; VH SEQ ID NO: 21, VL SEQ ID NO: 22; example of antibody K (antibody, V domains shown, R14 VH; R14 VL) VH: QVTLKESGPGILQPSHTLSLTCSFSGFSLSTYGMGVSWIRQPSGKGLEWLASIWWNGRTYTNPSLMSRLTVSKDTSTNQAFLRVTSVETADTATYYCAHTPYDYSNLGWFTYWGQGTLVTVSS VL: DILMTQTPSSQAVSAGEKVTVSCKSSQSLLYSGDQKSYLAWYQQKPGQSPKLLIYLASTRKSGVPDRFIGSGSGTDFTLTISSVQAEDLADYYCQQHYTYPLTFGSGTKLEI | capable of recognizing

Identify measured recognition of 1-1-5 corresponding to M48: mouse anti-CLDN-5 monoclonal antibody, IgG3/K; VH SEQ ID NO: 9, VL SEQ ID NO: 10; example of antibody E (antibody, V domains shown, M48 VH; M48 VL) VH: QAYLQQSGAELVRPGASVKMSCKASGYTFTSYNMHWVKKTRRQGLEWIGAISPGNGNTSYNQKFKGKATLTVDKSSSTAYMQLSSLTSEDSAVYFCARDDGYYGALDYWGQGTSVTVSS VL: DIVLTQSPATLSVTPGESVSLSCRASQGISTSIHWYQQKSNESPRLLIRYASQSISRIPSRFSGSGSGTDFTLTINGVESEDLSVYYCQQSYNLPLTFGSGTKLEI
capable of recognizing

Identify measured recognition of 1-1-5 corresponding to R9: rat anti-CLDN-5 monoclonal antibody, IgG2b/K; VH SEQ ID NO: 17, VL SEQ ID NO: 18; example of antibody I (antibody, V domains shown, R9 VH; R9 VL) VH: QVTLKESGPGILQPSHTLSLTCSFSGFSLNTYGVGVNWIRQPSGKGLEWLASIWWHGKTYINPSLKNRLTVSKDPSNNQAFLEVTNVDPADTATYYCAHARAQLLDYWGQGVMVTVSS VL: DIVMTQTPSSQAVSAGEKVTMSCKSSQSLLYSGDQKNYLAWYQQKPGQSPKLLIYLTSTRESGVPDRFIGSGSGTDFTLTISSVQAEDLADYYCQQHYSYPLTFGSGTKLEI
capable of recognizing

Values were extracted from patent US11053313B2.
